Molecular target: AtNDK1 (Arabidopsis nucleoside diphosphate kinase 1) (Arabidopsis thaliana, UniProt P39207)
Sequence (P39207 whole entry): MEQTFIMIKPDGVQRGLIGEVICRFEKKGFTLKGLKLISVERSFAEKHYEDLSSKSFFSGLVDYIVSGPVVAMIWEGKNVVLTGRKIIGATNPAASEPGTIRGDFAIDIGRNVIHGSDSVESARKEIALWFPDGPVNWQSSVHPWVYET
VALUE TYPE: pIC50
Please report pIC50 as the negative decimal logarithm of the molar concentration, giving only the number.

Lookup: Indicate the recorded pIC50 value for this compound: Nc1nc2c(ncn2[C@@H]2O[C@H](COP(=O)(O)OP(=O)(O)OP(O)(O)=S)[C@@H](O)[C@H]2O)c(=O)[nH]1 [GTPγS, guanosine 5′-O-[γ-thio] triphosphate]
Found: 6.17

Source: paper PMC10815852
